List of FLIPR IC50 (GRO-α induced calcium release) values.
# test-system: T1, Human CXCR2 (human, UniProt P25025 1-360)
# T1 sequence: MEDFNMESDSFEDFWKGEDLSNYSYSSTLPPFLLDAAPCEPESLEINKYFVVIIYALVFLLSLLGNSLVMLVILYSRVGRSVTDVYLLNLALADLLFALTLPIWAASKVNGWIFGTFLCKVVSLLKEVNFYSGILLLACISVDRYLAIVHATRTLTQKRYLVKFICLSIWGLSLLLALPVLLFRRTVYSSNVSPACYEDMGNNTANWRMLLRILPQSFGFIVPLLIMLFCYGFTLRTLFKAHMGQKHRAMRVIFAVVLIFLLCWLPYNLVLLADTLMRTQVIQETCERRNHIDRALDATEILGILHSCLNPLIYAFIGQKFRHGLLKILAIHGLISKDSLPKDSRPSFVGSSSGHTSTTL
# method-notes: cell-based or functional assay
measurement-label: FLIPR IC50 (GRO-α induced calcium release) (nM)

INSERT INTO measurements (binder, observed_result) VALUES
  ('CXCR20023 (bispecific antibody, Two different VHH joined by a GlySer linker; also called 163D2-35GS-163E3; not shown: C-terminal c-myc tag and His6 tag coded by pAX100) EVQLVESGGGLVQAGGSLRLSCAASGRTFSDYAMGWFRQAPGKEREFVAAITWNGGRVFYTASVKGRFTISRDNAKNTMYLQMNSLKPEDTAVYYCAADKDRRTDYLGHPVAYWGQGTQVTVSSGGGGSGGGGSGGGGSGGGGSGGGGSGGGGSGGGGSEVQLVESGGGLVQPGGSLRLSCVASGRIFSSNAMGWFRQAPGKEREFVAAITWRSGGSAYYADSAKGRFTISRDNAKNTVYLQMNSLKPEDTAVYYCAAGGSSWLSFPPDYWGQGTQVTVSS', 14.8),
  ('CXCR20036 (other, Biparatopic: two VHH joined by a GlySer linker; also called 54B12-35GS-163D2; 54B12-163D2; not shown: C-terminal c-myc tag and His6 tag coded by pAX100) EVQLVESGGGLVQAGGSLTLSCAVSGSTFRINTMGWYRRAPGKQRELVAARDRGGYINYVDSVKGRFTVSRDNAKPTMYLQMNSLKPEDTAVYYCHAGTQDRTGRNFDRWGQGTQVTVSSGGGGSGGGGSGGGGSGGGGSGGGGSGGGGSGGGGSEVQLVESGGGLVQAGGSLRLSCAASGRTFSDYAMGWFRQAPGKEREFVAAITWNGGRVFYTASVKGRFTISRDNAKNTMYLQMNSLKPEDTAVYYCAADKDRRTDYLGHPVAYWGQGTQVTVSS', 7.86);
